Cited source for all entries: the supplement of paper PMC12764529

- measurement-notes: folding stability dG unfold from chymotrypsin proteolysis; higher = more stable
Assignment: determine reported folding stability dG unfold for the given sequences.
Give the number; kcal/mol is assumed, so skip it.

Query block: Requested read-out: folding stability dG unfold. Entry: SAGGSAGGSAMKPVPFEVLSVSYPVLPNGTRIRLVEIKFPETGEVKWIELSPDDPVIKALLSAGGSAGGSAG [r3_57_JUSTAS]
Result block: 1.9

Query block: Requested read-out: folding stability dG unfold. Entry: SAGGEEVVVERPPAPPPITVTIEYDEETNTVTVTVTLPNGETLTITVEAPSLEEAEAAARELLEALSSAGGS [r16_319_TrROS_Hall]
Result block: 2.96

Query block: Requested read-out: folding stability dG unfold. Entry: SAGGSAGGSAGGRLVVFEVKKDELNITGPGEARVVSVEELPGDRVRVVVEVPEGAVPGLASAGGSAGGSAGG [r17_48_TrMRF]
Result block: 1.27

Query block: Requested read-out: folding stability dG unfold. Entry: SAGGSAGGSDPAKKPVYLLATVEVEIGEVVDPNTGEPSHEHRVTVRFLITIDPDGNISISSLTSAGGSAGGS [r12_438_TrMRF]
Result block: 3.25

Query block: Requested read-out: folding stability dG unfold. Entry: SAGGSAGGSAGGKKIIKVPLKNAEKIKKELKKKYKIKKVKIEKNKDGSKYIYIEVEKPKSAGGSAGGSAGGS [r10_1219_TrROS_Hall]
Result block: 1.69

Query block: Requested read-out: folding stability dG unfold. Entry: SAGGSAGGSAGGKPLYLRITVKNKDGSEREIVVPLDTTIDDILAALPPNVTEVKIEVFPVSAGGSAGGSAGG [r7_288_TrROS_Hall]
Result block: 3.52

Query block: Requested read-out: folding stability dG unfold. Entry: SAGKKYKVKKKITLTLEDGSKITIEIVENEDGTVEIKITDSNGKTRTITIPKEKLENMSLEELLKLLKSAGG [r19_47_TrROS_Hall]
Result block: 1.73

Query block: Requested read-out: folding stability dG unfold. Entry: SAGGSAGGSAGGIKITPDIRELLRQQGKPFSEEEIQGIAKYIAKHFKEKGFEDVTIRIPWSAGGSAGGSAGG [r7_512_TrROS]
Result block: 0.783

Query block: Requested read-out: folding stability dG unfold. Entry: SMEPGERYRITATRKDGSRVEVEAIPGGVLRARVYLPNGELVGEAEFPVDRPVELLEALGLDELVSVEPESA [r9_1107_TrMRF]
Result block: 2.42

Query block: Requested read-out: folding stability dG unfold. Entry: SAGGPDPYNLKVEEETYPNPDGGEMKIPKIEIPDGRLKIDMEMRNPGNGKEHEHEITIPVKPGQEIFISAGG [r13_190_TrROS]
Result block: 0.906

Query block: Requested read-out: folding stability dG unfold. Entry: SAGGSAGGSAMSVTATVPEKPVTLTYIPPNTVTKTVIDPSTGTTTTTEVNLPPGVVPASLLLSAGGSAGGSA [r18_59_JUSTAS]
Result block: -0.191

Query block: Requested read-out: folding stability dG unfold. Entry: SAMMVVYYDPETGELVLVDPSEIPPELVEKGIEPVRLVPLRILVEVESEEEAEELARLFPDLVEVSLNPSAG [r14_638_TrMRF]
Result block: 1.83

Query block: Requested read-out: folding stability dG unfold. Entry: SAGGSAGGSAGGNPVYRTRAEILETVPVGEDETVWLPGTAAPVSPSTTVLLARVYSVPADSAGGSAGGSAGG [r11_793_TrMRF]
Result block: -0.355

Query block: Requested read-out: folding stability dG unfold. Entry: SAGGGYRAVAVFERPDGRREVVFIEFESEEEALREAEEIARRFGLRLKELRVYPVEPLPPVRPELAGSAGGS [r8_364_TrMRF]
Result block: 5.17
